Where these numbers come from: the supplement of paper PMC10127200

Entries and their Euclidean distance values follow.
- System: A549
- methodNotes: Euclidean distance of Cell Painting phenotypic profile (signed KS, 77 features) to DMSO centroid (dimensionless distance); 5 or 10 uM (library dependent); higher = stronger phenotypic change vs DMSO (phenoactivity)
- experimentalSetup: 48 h
Where a name gives a salt, the structure may show the parent alone.
metricName: Euclidean distance

1. Nc1nc(=O)[nH]cc1F [Flucytosine]	1.12
2. NC(=O)NCCC[C@H](N)C(=O)O [L-Citrulline]	0.895
3. CC(C)(C)c1cnc(CSc2cnc(NC(=O)C3CCNCC3)s2)o1	3.69
4. COc1cnc(NS(=O)(=O)c2ccc(N)cc2)nc1 [Sulfameter]	1.11
5. O=C(CCCN1CCC(O)(c2ccc(Cl)cc2)CC1)c1ccc(F)cc1 [Haloperidol]	0.777
6. CNCC[C@H](Oc1cccc2ccccc12)c1cccs1 [Duloxetine HCl]	1.43
7. CN(C)CCOC(C)(c1ccccc1)c1ccccn1 (stereo not given) [Doxylamine Succinate]	0.709
8. COC[C@H]1C[C@@H](c2nc(-c3ccc4c(c3)COc3cc5c(ccc6nc([C@@H]7CC[C@H](C)N7C(=O)[C@@H](NC(=O)OC)C(C)C)[nH]c65)cc3-4)c[nH]2)N(C(=O)[C@H](NC(=O)OC)c2ccccc2)C1 [Velpatasvir]	1.43
9. Cc1c(C)c2c(c(C)c1O)CC[C@@](C)(CCC[C@H](C)CCC[C@H](C)CCCC(C)C)O2 [Vitamin E]	1.04
10. CC1=NN(c2ccc(C)c(C)c2)C(=O)/C1=N\Nc1cccc(-c2cccc(C(=O)O)c2)c1O [Eltrombopag Olamine]	1.04
11. CCOC(=O)/C=C(C)/C=C/C=C(C)/C=C/c1c(C)cc(OC)c(C)c1C [Etretinate]	0.993
12. Cc1ccnc2c1NC(=O)c1cccnc1N2C1CC1 [Nevirapine]	0.789
13. COc1ccc(C(=O)c2ccccc2)c(O)c1 [Oxybenzone]	0.943
14. COc1ccc(F)c(F)c1C(=O)c1cnc(NC2CCN(S(C)(=O)=O)CC2)nc1N	3.51
15. CN1CCC(COc2cnc(-c3cccc(Cn4nc(-c5cccc(C#N)c5)ccc4=O)c3)nc2)CC1	3.89
16. COc1ccc(C2=N[C@@H](c3ccc(Cl)cc3)[C@@H](c3ccc(Cl)cc3)N2C(=O)N2CCNC(=O)C2)c(OC(C)C)c1 [Nutlin-3]	3.54
17. Cc1cc(-c2ccccc2)nnc1NCCN1CCOCC1 [Minaprine dihydrochloride]	1.02
18. CCCS(=O)(=O)Nc1ccc(F)c(C(=O)c2c[nH]c3ncc(-c4ccc(Cl)cc4)cc23)c1F [Vemurafenib (PLX4032. RG7204)]	1.53
19. O=C(O)CCCc1ccccc1 [Sodium Phenylbutyrate]	0.666
20. Cc1ccsc1/C=C/C1=NCCCN1C [Morantel tartrate]	0.834

----------
Entries and their Euclidean distance values follow.
- Tested on: A549
- methodNotes: Euclidean distance of Cell Painting phenotypic profile (signed KS, 77 features) to DMSO centroid (dimensionless distance); 5 or 10 uM (library dependent); higher = stronger phenotypic change vs DMSO (phenoactivity)
- experimentalSetup: 48 h
Where a name gives a salt, the structure may show the parent alone.
metricName: Euclidean distance

1. C=C1/C(=C\C=C2/CCC[C@]3(C)[C@@H]([C@H](C)/C=C/[C@@H](O)C4CC4)CC[C@@H]23)C[C@@H](O)C[C@@H]1O	1.01
2. CCOC(=O)CCNc1cc(N2CCc3ccccc3CC2)nc(-c2ccccn2)n1	2.58
3. Cc1ccc(NC(=O)c2cccc(N(C)C)c2)cc1NC(=O)c1ccc(O)cc1	2.66
4. C[C@H]1CNCCCN1S(=O)(=O)c1cccc2cncc(F)c12 [Ripasudil (K-115) hydrochloride dihydrate]	0.784
5. CCC[C@@H]1C[C@@H](C(=O)N[C@@H]([C@H]2O[C@H](SC)[C@H](O)[C@@H](O)[C@H]2O)[C@H](C)Cl)N(C)C1 [Clindamycin]	0.77
6. C[C@@H](N)[C@H]1CC[C@H](C(=O)Nc2ccncc2)CC1	3.33
7. O=C(O)CCn1c2c(c3ccccc31)C[C@H](NS(=O)(=O)c1ccc(F)cc1)CC2	0.487
8. CC(=O)OCC(=O)[C@@]12N=C(C)O[C@@H]1C[C@H]1[C@@H]3CCC4=CC(=O)C=C[C@]4(C)[C@H]3[C@@H](O)C[C@@]12C	1.84
9. CCN1C[C@H](C)n2c(c(O)c3c(=O)n(Cc4ccc(F)c(Cl)c4)nc(C(=O)NC)c32)C1=O	0.61
10. COc1ccccc1OCC(O)CO (centres undefined)	0.957
11. CCCCOc1ccc(C(=O)CCN2CCCCC2)cc1 [Dyclonine HCl]	0.937
12. Cc1cc(OCCCS(C)(=O)=O)cc(C)c1-c1cccc(COc2ccc3c(c2)OC[C@H]3CC(=O)O)c1	1.02
13. CC(C)(O)CNc1nc(Nc2ccnc(C(F)(F)F)c2)nc(-c2cccc(C(F)(F)F)n2)n1	0.727
14. CN(C)CC/C=C1/c2ccccc2COc2ccc(CC(=O)O)cc21 [Olopatadine HCl]	0.745
15. Cc1cnc(NC(=O)Nc2cc(Br)c(C)cc2OC[C@@H]2CNCCO2)cn1	1.52
16. O=C(Nc1c(Cl)cncc1Cl)c1ccc(OC(F)F)c(OCC2CC2)c1	1.27
17. CCCN(CCC)S(=O)(=O)c1ccc(C(=O)O)cc1	0.549
18. CC1(C)O[C@H]2CC(=O)OC[C@]23[C@H]2CC[C@@]4(C)[C@H](c5ccoc5)OC(=O)[C@H]5O[C@]54[C@]2(C)C(=O)C[C@@H]13	0.714
19. COc1ccc(CN(CCN(C)C)c2ccccn2)cc1 [Pyrilamine Maleate]	0.864
20. N=C(N)NC(=N)N1CCOCC1 [Moroxydine HCl]	0.937
21. NC(=O)C(c1ccccc1)(c1ccccc1)[C@@H]1CCN(CCc2ccc3c(c2)CCO3)C1	0.89
22. CCn1cc(-c2ccnc3[nH]c(-c4cccc(CN(C)C)c4)cc23)c(-c2ccc(NC(=O)N(C)C)cc2)n1	2.73
23. CC1(C)CCC2=C(O1)c1ccccc1C(=O)C2=O	5.17
24. CCNC(=O)CC[C@H](N)C(=O)O	1.8
25. O=C1N=C(O)NC1(c1ccccc1)c1ccccc1 [Phenytoin Sodium]	0.644
26. CN1C(=O)/C(=C2/C(=O)Nc3ccccc32)c2ccccc21	2.33
27. CN1CCN(c2ccc(OC(F)(F)F)c(Nc3ncc4c(n3)-c3c(c(C(N)=O)nn3CCO)CC4)c2)CC1	4.08
28. N#CC(c1ccnc(OCc2ccc(CN3CCOCC3)cc2)n1)c1nc2ccccc2s1 (centres undefined)	1.83
29. COc1c2occc2c(OC)c2c(=O)cc(C)oc12	0.619

----------
- System: FB
- methodNotes: Euclidean distance of Cell Painting phenotypic profile (signed KS, 77 features) to DMSO centroid (dimensionless distance); 5 or 10 uM (library dependent); higher = stronger phenotypic change vs DMSO (phenoactivity)
- experimentalSetup: 48 h
Where a name gives a salt, the structure may show the parent alone.
# Euclidean distance >= 1 gives 1, anything below gives -1

1) COC(=O)C1=CO[C@@H](O[C@@H]2O[C@H](CO)[C@@H](O)[C@H](O)[C@H]2O)[C@@H]2[C@@H](C)[C@@H](O)C[C@H]12	-1
2) CC(=O)OCC(=O)[C@@]1(O)CC[C@H]2[C@@H]3CCC4=CC(=O)CC[C@]4(C)[C@H]3C(=O)C[C@@]21C [Cortisone acetate]	1
3) COc1nccnc1NS(=O)(=O)c1ccc(N)cc1 [Sulfalene(SMPZ)]	1
4) CCN(CC)CCOC(=O)c1ccc(N)cc1Cl [Chloroprocaine HCl]	-1
5) CC(=O)NCCCS(=O)(=O)O [Acamprosate Calcium]	-1
6) CCCN1CCCC[C@H]1C(=O)Nc1c(C)cccc1C [Ropivacaine Mesilate]	-1
7) O=C(Nc1ncc(SCCN2CCCC2)s1)[C@]1(c2ccc(S(=O)(=O)C3CC3)cc2)C[C@H]1C1CCCCC1	1
8) C[C@@H]1CN(c2c(F)c(N)c3c(=O)c(C(=O)O)cn(C4CC4)c3c2F)C[C@H](C)N1	-1
9) Nc1ccccc1NC(=O)c1ccc(CNc2nccc(-c3cccnc3)n2)cc1	1
10) CC1(N)CCN(c2cccnc2NC(=O)c2nc(-c3ncccc3C(F)(F)F)cnc2N)CC1	1
11) CCOC(=O)[C@H](CCc1ccccc1)N[C@@H](C)C(=O)N1C(=O)N(C)C[C@H]1C(=O)O [Imidapril HCl]	1
12) O=C(O)Cn1nnc(-c2cc(N3CCC(Oc4cc(F)ccc4Br)CC3)no2)n1	-1
13) CN[C@@H]1CCc2[nH]c3ccc(C(N)=O)cc3c2C1 [Frovatriptan Succinate]	-1
14) COc1cc(NC(C)CCCN)c2ncccc2c1 (stereo not drawn) [Primaquine Diphosphate]	1
15) NC[C@@H]1O[C@H](O[C@H]2[C@@H](O)[C@H](O[C@@H]3[C@@H](O)[C@H](N)C[C@H](N)[C@H]3O[C@H]3O[C@H](CO)[C@@H](O)[C@H](O)[C@H]3N)O[C@@H]2CO)[C@H](N)[C@@H](O)[C@@H]1O [Paromomycin Sulfate]	1
16) COc1ccc2cc1Oc1ccc(cc1)C[C@H]1c3cc(c(OC)cc3CCN1C)Oc1c(O)c(OC)cc3c1[C@H](C2)N(C)CC3	1
17) CCCCCCCC(=O)N[C@H](CN1CCCC1)[C@H](O)c1ccc2c(c1)OCCO2	1
18) CC(C)(O)c1ccccc1CC[C@@H](SCC1(CC(=O)O)CC1)c1cccc(/C=C/c2ccc3ccc(Cl)cc3n2)c1 [Montelukast Sodium]	-1
19) O=C(OC[C@H]1O[C@@H](OC(=O)c2cc(O)c(O)c(OC(=O)c3cc(O)c(O)c(O)c3)c2)[C@H](OC(=O)c2cc(O)c(O)c(OC(=O)c3cc(O)c(O)c(O)c3)c2)[C@@H](OC(=O)c2cc(O)c(O)c(OC(=O)c3cc(O)c(O)c(O)c3)c2)[C@@H]1OC(=O)c1cc(O)c(O)c(OC(=O)c2cc(O)c(O)c(O)c2)c1)c1cc(O)c(O)c(OC(=O)c2cc(O)c(O)c(O)c2)c1	1
20) C[C@@H]1C[C@H]2[C@@H]3C[C@H](F)C4=CC(=O)C=C[C@]4(C)[C@@]3(F)[C@@H](O)C[C@]2(C)[C@@]1(O)C(=O)CO	1
21) O=c1ncn2nc(Sc3ccc(F)cc3F)ccc2c1-c1c(Cl)cccc1Cl	1
22) CC(=O)OCC1=C(C(=O)O)N2C(=O)[C@@H](NC(=O)CSc3ccncc3)[C@H]2SC1	1
